# Tested on: UACC-62
# TEST NAME: NCI tumour cell line growth inhibition, 48 h
The source made the active and inactive calls. Rule as the data show it: active = GI50 up to about 1.1 µM and inactive = higher.
QUANTITY: GI50

• Cc1cc(Cl)ccc1NC(=O)/C(Cc1nc2ccc(C(=O)c3ccccc3)cc2nc1O)=N/NC(=O)c1ccncc1 = 97.3 µM (inactive)
• COc1ccc(CCNCc2cccc(OC)c2OC)cc1OC = > 100 µM (inactive)
• CC1(Cc2cc3c(cc2C2(c4ccc([N+](=O)[O-])cc4)OCCO2)OCO3)OCCO1 = 36 µM (inactive)
• CCOC(=O)c1c(N2CCOCC2)[nH]c(=O)c(C(c2c(Cl)cccc2Cl)c2c(O)c(C(=O)OCC)c(N3CCOCC3)[nH]c2=O)c1O = 6.9 µM (inactive)
• CSc1ccc2c(c1)c(CCN)c(C)n2Cc1ccccc1Cl = 1.65 µM (inactive)
• COc1ccccc1Cn1c2c(c3cc(O)ccc31)C(=O)c1ccccc1C2=O = 17 µM (inactive)
• Cc1ccc(/C=C/C(=O)c2ccc([N+](=O)[O-])cc2)cc1 = > 100 µM (inactive)

* * *

# Test system: SK-OV-3
# TEST NAME: NCI tumour cell line growth inhibition, 48 h
Calls of active or inactive are those of the source. Cut-off read from the data, not from the text of the source: active = GI50 up to about 1.1 µM and inactive = higher.
Reported GI50 values for a set of molecules
QUANTITY: GI50

• Cc1cc(S(=O)(=O)N=C2N(Cc3ccccc3)CCN2Cc2ccccc2)c(S)cc1Cl = > 100 µM (inactive)
• COc1cc(/C=C/c2ccccn2)cc(OC)c1OC = > 10 µM (inactive)
• COC(=O)CCCC(=O)NC1=C(NCc2ccccc2)C(=O)c2ccccc2C1=O = 45.5 µM (inactive)
• Cc1ccc(S(=O)OC23CC4CC(CC(C4)C2)C3)cc1 (centres undefined) = > 100 µM (inactive)

* * *

# Tested on: SF-268
# TEST NAME: NCI tumour cell line growth inhibition, 48 h
The source made the active and inactive calls. No stated cut-off is given here; in the data, active = GI50 up to about 1.1 µM and inactive = higher.
Classes used: t = active, f = inactive

* NC(Cc1ccc(B(O)O)cc1)C(=O)NC(CO)CO (stereo unspecified) | f
* CC1CCCP(=O)(c2ccccc2)CC1 (stereo unspecified) | f
* COc1ccccc1OCC(=N/NC(=O)c1ccncc1)/N=C/c1cccnc1 | f
* Cn1nc(-c2ccccc2)c(C(=O)/C=C/c2ccc(F)cc2)c(N2CCOCC2)c1=O | f
* Clc1nc(Cl)c(CBr)c(Cl)n1 | f
* [O-]c1c[n+](CC[n+]2cc([O-])on2)no1 | f
* Cc1ccccc1NC(=O)/C(=N/NC(=O)CC#N)C1C(=O)N(c2ccccc2)N=C1N (stereo unspecified) | f
* COc1cc(C2c3cc4c(cc3OC(NCCO)C2C)OCO4)cc(OC)c1OC (stereo unspecified) | f
* CCCCCCCCCCCCCCCCCC(=O)OCC1OC(OC)C(NC(=O)N(CCCl)N=O)C(O)C1O (stereo unspecified) | f
* CC(=O)N1CC(C)(C)c2c(C)c(O)c(C)c(C)c21 | f
* CCOc1ccccc1NC(=O)C1=C(C)NC(C)=C(C(=O)Nc2ccccc2OCC)C1c1ccc2c(c1)OCO2 | f
* CSc1ccc2c(c1)c(CCN)c(C)n2Cc1ccccc1Cl | f
* COc1cc(/C=C2\CCC(C)C3=C(c4cc(OC)c(OC)c(OC)c4)C(C#N)=C(N)OC32)cc(OC)c1OC (stereo unspecified) | f
* CC(=O)Nc1ccc(-c2nnc(SCC(=O)Nc3ccccc3)o2)cc1 | f
* CC1=NN(C(=O)c2ccccc2O)C(=O)/C1=C/c1ccccc1O | t
* CC1=NN(C(=O)c2ccc(Cl)cc2)C(=O)/C1=C/c1cccc([N+](=O)[O-])c1 | f
* C1=C2/CC[C@H](Sc3ccccc3)[C@H]2C2(CCCCC/1)OCCO2 | f
* CCOC(=O)C1=C(C)NC(=S)NC1c1ccccc1 (stereo unspecified) | f
* CC(=O)N1N=C(N)CC1=O | f
* C[C@]12CC[C@H](O)CC1=CC[C@@H]1C2CC[C@]2(C)C(=O)NC(=O)CC12 (stereo partly specified) | f
* CCOC(=O)/C=C\C(C#N)(C#N)/N=C/c1ccsc1 | f
* Cc1c(C2=NN=C(/N=N/c3c(O)cccc3O)/C2=C/c2ccccc2)c(=O)n(-c2ccccc2)n1C | f
* CC[C@H]1C=CCC[C@@]2(C[C@@H]3CC[C@@H]4[C@H](C(=O)OCCCCCCCCCCCCCCCC(=O)O)[C@]5(CCC[C@@H](C)O5)NC(=[N+]34)N2)O1 [CRAMBESCIDIN 657] | t
* COC(=O)N1C=CC2=C(C)C3Nc4ccccc4C3C(C)=C2C1 (stereo unspecified) | f
* COc1ccc(-c2nc(-c3cc4ccccc4oc3=O)cs2)cc1 | f
* Cc1ccc(/C=N\NC2c3cc(Cl)ccc3Nc3nc(O)nc(C)c32)cc1 (stereo unspecified) | f
* NCCNCCCCCCNC(=O)c1cccc2cc3ccccc3nc12 | f
* CC(C)(C)N(Cc1ccc2c(c1)OCO2)C(=O)/C=C\[S+]([O-])c1ccccc1 (stereo unspecified) | f
* O=C(c1ccccc1)n1[nH]c(=O)n(-c2ccc(Cl)cc2)c1=O | f
* Cc1nc(-n2nc(-c3ccccc3)cc2-c2ccccc2)sc1C(=O)/C=C/c1ccc(Cl)c(Cl)c1 | f
* NCc1nnn(Cc2ccccc2)c1N | f

* * *

# System: HOP-62
# TEST NAME: NCI tumour cell line growth inhibition, 48 h
Activity calls are given as the source filed them. Rule as the data show it: active = GI50 up to about 1.1 µM and inactive = higher.
QUANTITY: GI50

* OC1C[C@H](c2ccccc2)C2(C(O)c3ccccc3C2O)[C@@H](c2ccccc2)C1 (stereo partly drawn) | > 100 µM (inactive)
* CC(=O)OCC1OC(O[C@H]2C=C[C@@H](C(=O)OCc3ccccc3)n3c(=O)n(-c4ccccc4)c(=O)n32)C(OC(C)=O)C(OC(C)=O)C1OC(C)=O (stereo partly drawn) | 5.01 µM (inactive)
* CCC1(C)N=c2c(ncn2N=C(C)C)=C(C(N)=O)N1 (stereo not drawn) | > 100 µM (inactive)

* * *

# System: SF-268
# TEST NAME: NCI tumour cell line growth inhibition, 48 h
Active and inactive are the calls of the source. Rule as the data show it: active = GI50 up to about 1.1 µM and inactive = higher.
QUANTITY: GI50

* O=C1/C(=C/c2ccc([N+](=O)[O-])cc2)CCCc2ccccc21 | 30.4 µM (inactive)
* Nc1ccc2nc3ccc(N)cc3[n+](-c3ccccc3)c2c1 | 29 µM (inactive)
* O=C(CSc1nc2ccc([N+](=O)[O-])cc2s1)c1ccc2ccccc2c1 | > 100 µM (inactive)
* CC(C)=CCc1c(O)ccc2c1OC1c3ccc(O)c(CC=C(C)C)c3OCC21 (configuration not stated) | 11.2 µM (inactive)
* CC1(Cc2cc3c(cc2C2(c4ccc([N+](=O)[O-])cc4)OCCO2)OCO3)OCCO1 | > 100 µM (inactive)
* N#CC1C=Cc2ccccc2N1C(=O)Oc1ccccc1 (configuration not stated) | 55.1 µM (inactive)
* COC1(OC)CCC2(C)OC(c3ccccc3)C1O2 (configuration not stated) | > 100 µM (inactive)

* * *

# Test system: NCI-H23
# TEST NAME: NCI tumour cell line growth inhibition, 48 h
The source made the active and inactive calls. Cut-off read from the data, not from the text of the source: active = GI50 up to about 1.1 µM and inactive = higher.
Classes used: true = active, false = inactive

• CC(C)(C)c1ccc(O)c(C[N+](C)(C)C)c1 = false
• O=C1c2cc3c(cc2CC12Cc1cc4c(cc1C2=O)CCC4)CCC3 = false
• CCOC(=O)C1C[C@H]2CO[C@H](c3ccccc3)N2C1=O (stereo partly specified) = false
• O=C1C(Cl)=C(OCCCl)C(=O)c2c(O)ccc(O)c21 = false
• CCOC(=O)CCC(=O)C1c2cccc(O)c2C(=O)c2c(O)cc(C)cc21 (stereo unspecified) = true
• Nc1cc2c(c3ccccc13)C(CCl)CN2C(=O)c1cc2cc(NC(=O)c3cc4ccccc4o3)ccc2[nH]1 (stereo unspecified) = true
• CC1=CP(=O)(OC(C)C)CC(C)=C1Cl (stereo unspecified) = false
• COc1ccc(Cn2c(C)nc3c2C(=O)c2ccccc2C3=O)cc1 = false
• COC(=O)C(C(=O)C(=O)NC1Nc2ccc(C)cc2S1)c1nc2ccc(Cl)cc2nc1O (stereo unspecified) = false
• O=C(N/N=C(COc1ccccc1Cl)\N=C\c1cccnc1)c1ccncc1 = false
• O=C1OC(c2ccccc2)=N/C1=C\c1cn[nH]n1 = false
• Oc1ccc(CCc2cc(O)cc(O)c2)cc1 [DIHYDRORESVERATROL] = false
• CC(=O)CCC1(C(=O)OCC(C)C)CCCC1=O (stereo unspecified) = false
• COc1cc(/C=C2\CCC(C)C3=C(c4cc(OC)c(OC)c(OC)c4)C(C#N)=C(N)OC32)cc(OC)c1OC (stereo unspecified) = false
• C1=C2/CC[C@H](Sc3ccccc3)[C@H]2C2(CCCCC/1)OCCO2 = false
• NNC(=O)c1nnn(N)c1S = false
